- assay_context: solubility in α-tocopherol
For each entry below, report its g drug in 100 g of α-tocopherol value.
One number for each entry, in g drug in 100 g.

# molecule, measure, readout_unit, assay_result
measured = [
    ("Clc1ccc(COC(Cn2ccnc2)c2ccc(Cl)cc2Cl)c(Cl)c1 (stereo not shown) [Miconazole, miconazole]", "g drug in 100 g of α-tocopherol", "g drug in 100 g", 60),
]

Query block: Give recorded g drug in 100 g of α-tocopherol. CCN(CC)C(=S)SSC(=S)N(CC)CC [Disulfiram, disulfiram]
Result block: 5

Data provenance is patent US6193985A.
